Ref: patent US7772228B2

Test: clinical
Conditions: human, in vivo, 300 mg
READOUT LABEL: Cmax (ng/mL)
Write down the numeric answer in ng/mL and omit the unit.

Requested field: Cmax. Item: CO[C@H]1/C=C/O[C@@]2(C)Oc3c(C)c(O)c4c(=O)c(c5oc6cc(N7CCN(CC(C)C)CC7)cc(O)c6nc-5c4c3C2=O)NC(=O)/C(C)=C\C=C\[C@H](C)[C@H](O)[C@@H](C)[C@@H](O)[C@@H](C)[C@H](OC(C)=O)[C@@H]1C
116

---

Assay: Clinical trial 005, rifalazil concentration in plasma of tuberculosis patients
Type: in vivo, human
Details: human, plasma, INH + 25 mg KRM; Hour 9; read-out: Rifalazil Concentration in Plasma, Max
READOUT LABEL: concentration at 9 h (ng/mL)
Respond with the bare value in ng/mL.

Which value of concentration at 9 h has been reported for CO[C@H]1/C=C/O[C@@]2(C)Oc3c(C)c(O)c4c(=O)c(c5oc6cc(N7CCN(CC(C)C)CC7)cc(O)c6nc-5c4c3C2=O)NC(=O)/C(C)=C\C=C\[C@H](C)[C@H](O)[C@@H](C)[C@@H](O)[C@@H](C)[C@H](OC(C)=O)[C@@H]1C in the records?
38.2

---

Test: Clinical trial 005, rifalazil concentration in plasma of tuberculosis patients
Type: in vivo, human
Conditions: human, plasma, 10 mg, INH + 10 mg KRM; Day 15; read-out: Rifalazil Concentration in Plasma, Max
READOUT LABEL: concentration at 15 day (ng/mL)
Unit ng/mL implied. Number only.

// concentration at 15 day lookup, key: CO[C@H]1/C=C/O[C@@]2(C)Oc3c(C)c(O)c4c(=O)c(c5oc6cc(N7CCN(CC(C)C)CC7)cc(O)c6nc-5c4c3C2=O)NC(=O)/C(C)=C\C=C\[C@H](C)[C@H](O)[C@@H](C)[C@@H](O)[C@@H](C)[C@H](OC(C)=O)[C@@H]1C
0

---

Assay: Clinical trial 005, rifalazil concentration in plasma of tuberculosis patients
Assay type: in vivo, human
Conditions: human, plasma, INH + 10 mg KRM; Hour 12; read-out: Rifalazil Concentration in Plasma, Med
READOUT LABEL: concentration at 12 h (ng/mL)
The reply should be a number in ng/mL, with the unit left off.

Quick one: concentration at 12 h for CO[C@H]1/C=C/O[C@@]2(C)Oc3c(C)c(O)c4c(=O)c(c5oc6cc(N7CCN(CC(C)C)CC7)cc(O)c6nc-5c4c3C2=O)NC(=O)/C(C)=C\C=C\[C@H](C)[C@H](O)[C@@H](C)[C@@H](O)[C@@H](C)[C@H](OC(C)=O)[C@@H]1C ?
11.4

---

Assay: Clinical trial 005, rifalazil concentration in plasma of tuberculosis patients
Format: in vivo, human
Details: human, plasma, INH + 10 mg KRM; Hour 72; read-out: Rifalazil Concentration in Plasma, Max
READOUT LABEL: concentration at 72 h (ng/mL)
Report as a plain number; the unit ng/mL is understood.

// concentration at 72 h lookup, key: CO[C@H]1/C=C/O[C@@]2(C)Oc3c(C)c(O)c4c(=O)c(c5oc6cc(N7CCN(CC(C)C)CC7)cc(O)c6nc-5c4c3C2=O)NC(=O)/C(C)=C\C=C\[C@H](C)[C@H](O)[C@@H](C)[C@@H](O)[C@@H](C)[C@H](OC(C)=O)[C@@H]1C
2.2

---

Assay: Clinical trial 005, rifalazil concentration in plasma of tuberculosis patients
Type: in vivo, human
Conditions: human, plasma, INH + 25 mg KRM; Hour 72; read-out: Rifalazil Concentration in Plasma, Max
READOUT LABEL: concentration at 72 h
A complete answer gives the number followed by the unit.

I'd like to know its concentration at 72 h. The compound in question is CO[C@H]1/C=C/O[C@@]2(C)Oc3c(C)c(O)c4c(=O)c(c5oc6cc(N7CCN(CC(C)C)CC7)cc(O)c6nc-5c4c3C2=O)NC(=O)/C(C)=C\C=C\[C@H](C)[C@H](O)[C@@H](C)[C@@H](O)[C@@H](C)[C@H](OC(C)=O)[C@@H]1C
3.2 ng/mL

---

Assay: Clinical trial 005, rifalazil concentration in plasma of tuberculosis patients
Format: in vivo, human
Conditions: human, plasma, 25 mg, INH + 25 mg KRM; Day 11; read-out: Rifalazil Concentration in Plasma, Mean
READOUT LABEL: concentration at 11 day (ng/mL)
Number in ng/mL, nothing else.

Can you look up the measured concentration at 11 day of CO[C@H]1/C=C/O[C@@]2(C)Oc3c(C)c(O)c4c(=O)c(c5oc6cc(N7CCN(CC(C)C)CC7)cc(O)c6nc-5c4c3C2=O)NC(=O)/C(C)=C\C=C\[C@H](C)[C@H](O)[C@@H](C)[C@@H](O)[C@@H](C)[C@H](OC(C)=O)[C@@H]1C [Rifalazil] for me?
4.12

---

Assay: Clinical trial 005, rifalazil concentration in plasma of tuberculosis patients
Format: in vivo, human
Conditions: human, plasma, 10 mg, INH + 10 mg KRM; Day 11; read-out: Rifalazil Concentration in Plasma, Max
READOUT LABEL: concentration at 11 day (ng/mL)
Give just the numeric value; ng/mL need not be written.

Any idea what its concentration at 11 day is? The compound is CO[C@H]1/C=C/O[C@@]2(C)Oc3c(C)c(O)c4c(=O)c(c5oc6cc(N7CCN(CC(C)C)CC7)cc(O)c6nc-5c4c3C2=O)NC(=O)/C(C)=C\C=C\[C@H](C)[C@H](O)[C@@H](C)[C@@H](O)[C@@H](C)[C@H](OC(C)=O)[C@@H]1C
2.5

---

Experiment: clinical
Settings: human, in vivo, 30 mg
READOUT LABEL: AUC(0-inf) (ng·h/mL)
The response must be a number in ng·h/mL with no trailing unit.

State the recorded AUC(0-inf) for this entry: CO[C@H]1/C=C/O[C@@]2(C)Oc3c(C)c(O)c4c(=O)c(c5oc6cc(N7CCN(CC(C)C)CC7)cc(O)c6nc-5c4c3C2=O)NC(=O)/C(C)=C\C=C\[C@H](C)[C@H](O)[C@@H](C)[C@@H](O)[C@@H](C)[C@H](OC(C)=O)[C@@H]1C
505

---

Assay: Clinical trial 005, rifalazil concentration in plasma of tuberculosis patients
Format: in vivo, human
Details: human, plasma, 25 mg, INH + 25 mg KRM; Day 11; read-out: Rifalazil Concentration in Plasma, Med
READOUT LABEL: concentration at 11 day (ng/mL)
Only the number, expressed in ng/mL, is required.

Looking for the measured concentration at 11 day of CO[C@H]1/C=C/O[C@@]2(C)Oc3c(C)c(O)c4c(=O)c(c5oc6cc(N7CCN(CC(C)C)CC7)cc(O)c6nc-5c4c3C2=O)NC(=O)/C(C)=C\C=C\[C@H](C)[C@H](O)[C@@H](C)[C@@H](O)[C@@H](C)[C@H](OC(C)=O)[C@@H]1C , can you help?
3.3

---

Assay: Clinical trial 005, rifalazil concentration in plasma of tuberculosis patients
Format: in vivo, human
Conditions: human, plasma, INH + 25 mg KRM; Hour 5; read-out: Rifalazil Concentration in Plasma, Min
READOUT LABEL: concentration at 5 h (ng/mL)
Please reply with the bare figure in ng/mL and do not write the unit itself.

Could you tell me which concentration at 5 h is on file for CO[C@H]1/C=C/O[C@@]2(C)Oc3c(C)c(O)c4c(=O)c(c5oc6cc(N7CCN(CC(C)C)CC7)cc(O)c6nc-5c4c3C2=O)NC(=O)/C(C)=C\C=C\[C@H](C)[C@H](O)[C@@H](C)[C@@H](O)[C@@H](C)[C@H](OC(C)=O)[C@@H]1C ?
5.5

---

Test: clinical
Conditions: human, in vivo, 300 mg
READOUT LABEL: AUC(0-inf)
Put your answer as a value accompanied by its unit after it.

So what does the record say about AUC(0-inf) for CO[C@H]1/C=C/O[C@@]2(C)Oc3c(C)c(O)c4c(=O)c(c5oc6cc(N7CCN(CC(C)C)CC7)cc(O)c6nc-5c4c3C2=O)NC(=O)/C(C)=C\C=C\[C@H](C)[C@H](O)[C@@H](C)[C@@H](O)[C@@H](C)[C@H](OC(C)=O)[C@@H]1C ?
4330 ng·h/mL

---

Assay: Clinical trial 005, rifalazil concentration in plasma of tuberculosis patients
Assay type: in vivo, human
Details: human, plasma, INH + 25 mg KRM; Hour 0; read-out: Rifalazil Concentration in Plasma, Med
READOUT LABEL: concentration at 0 h (ng/mL)
Numeric only. Scale: ng/mL

# input molecule: CO[C@H]1/C=C/O[C@@]2(C)Oc3c(C)c(O)c4c(=O)c(c5oc6cc(N7CCN(CC(C)C)CC7)cc(O)c6nc-5c4c3C2=O)NC(=O)/C(C)=C\C=C\[C@H](C)[C@H](O)[C@@H](C)[C@@H](O)[C@@H](C)[C@H](OC(C)=O)[C@@H]1C [Rifalazil] ; wanted: its concentration at 0 h
0
